Target: hPTP1B1–400 (Homo sapiens, UniProt P18031)
Sequence (P18031 1-400): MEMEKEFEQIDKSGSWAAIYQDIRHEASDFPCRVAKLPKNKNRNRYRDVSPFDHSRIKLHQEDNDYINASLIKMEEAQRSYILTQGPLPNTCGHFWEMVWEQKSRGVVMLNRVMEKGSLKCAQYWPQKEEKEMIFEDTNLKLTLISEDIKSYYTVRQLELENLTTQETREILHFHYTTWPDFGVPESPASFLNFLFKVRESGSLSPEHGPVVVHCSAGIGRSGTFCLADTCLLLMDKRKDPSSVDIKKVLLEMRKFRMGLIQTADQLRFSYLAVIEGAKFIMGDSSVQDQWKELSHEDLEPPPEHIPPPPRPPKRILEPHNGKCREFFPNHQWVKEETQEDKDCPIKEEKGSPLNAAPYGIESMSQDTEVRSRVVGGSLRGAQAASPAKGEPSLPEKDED
Assay: PTP1B inhibition assay (pNPP, spectrocolorimetric), long form
Conditions: IC50 ± SD hPTP1B1–400, hPTP1B 66 nM, pNPP 0.5 mM, 37 °C, 15 min
pIC50: −log10 of the molar value.
Let's look at some molecules and their measured pIC50.
OBSERVED_PROPERTY: pIC50

[[record]]
molecule = "Cc1ccc(CNC[C@]2(O)CC[C@]3(C)C4CC[C@@]5(C)C(CCC5[C@H](C)CCC(=O)O)C4CC[C@@H]3C2)cc1 (stereo partly drawn)"
qualifying_sign = "="
measured = 4.46

[[record]]
molecule = "C[C@H](CCC(=O)O)C1CCC2C3CC[C@@H]4C[C@](O)(CNCc5ccc(Cl)cc5)CC[C@]4(C)C3CC[C@@]21C (stereo partly drawn)"
qualifying_sign = "<"
measured = 4.00

[[record]]
molecule = "C[C@H](CCC(=O)O)C1CCC2C3CC[C@@H]4C[C@](O)(CNCc5cccc(C(=O)O)c5)CC[C@]4(C)C3CC[C@@]21C.Cl (stereo partly drawn)"
qualifying_sign = "="
measured = 4.49


###

Molecular target: hPTP1B1–400 (Homo sapiens)
Sequence (P18031 1-400): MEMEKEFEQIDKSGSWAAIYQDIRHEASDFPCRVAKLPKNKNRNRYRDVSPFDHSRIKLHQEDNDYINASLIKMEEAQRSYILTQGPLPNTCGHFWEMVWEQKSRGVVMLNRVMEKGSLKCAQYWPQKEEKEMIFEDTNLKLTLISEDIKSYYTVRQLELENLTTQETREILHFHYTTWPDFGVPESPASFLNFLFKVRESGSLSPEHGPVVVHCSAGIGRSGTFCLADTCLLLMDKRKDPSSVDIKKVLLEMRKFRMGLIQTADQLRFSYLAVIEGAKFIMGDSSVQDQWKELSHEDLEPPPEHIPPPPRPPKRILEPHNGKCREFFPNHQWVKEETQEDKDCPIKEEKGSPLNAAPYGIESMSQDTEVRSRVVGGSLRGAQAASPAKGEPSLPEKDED
Assay: Enzyme kinetics (Lineweaver–Burk, varying pNPP)
Settings: hPTP1B1–400, best fit of inhibition models
OBSERVED_PROPERTY: inhibition mechanism

[[record]]
compound = "C[C@H](CCC(=O)O)C1CCC2C3CC[C@@H]4C[C@](O)(CNCc5ccc(C(=O)O)cc5)CC[C@]4(C)C3CC[C@@]21C.Cl (some centres unmarked)"
measured = "Uncompetitive"

[[record]]
compound = "COc1ccc(CNC[C@]2(O)CC[C@]3(C)C4CC[C@@]5(C)C(CCC5[C@H](C)CCC(=O)O)C4CC[C@@H]3C2)cc1.Cl (some centres unmarked)"
measured = "Uncompetitive"

[[record]]
compound = "C[C@H](CCC(=O)O)C1CCC2C3CC[C@@H]4C[C@](O)(CNCc5cccc(C(=O)O)c5)CC[C@]4(C)C3CC[C@@]21C.Cl (some centres unmarked)"
measured = "Uncompetitive"

[[record]]
compound = "C[C@H](CCC(=O)O)C1CCC2C3CC[C@@H]4C[C@](O)(CNCc5cccc(C(F)(F)F)c5)CC[C@]4(C)C3CC[C@@]21C.Cl (some centres unmarked)"
measured = "uncompetitive inhibition"

[[record]]
compound = "C[C@H](CCC(=O)O)C1CCC2C3CC[C@@H]4C[C@](O)(CNCc5ccc(C(F)(F)F)cc5)CC[C@]4(C)C3CC[C@@]21C.Cl (some centres unmarked)"
measured = "uncompetitive inhibition"

[[record]]
compound = "C[C@H](CCC(=O)O)C1CCC2C3CC[C@@H]4C[C@](O)(CNCc5cc(C(F)(F)F)cc(C(F)(F)F)c5)CC[C@]4(C)C3CC[C@@]21C.Cl (some centres unmarked)"
measured = "Uncompetitive"

[[record]]
compound = "COc1cccc(CNC[C@]2(O)CC[C@]3(C)C4CC[C@@]5(C)C(CCC5[C@H](C)CCC(=O)O)C4CC[C@@H]3C2)c1.Cl (some centres unmarked)"
measured = "Uncompetitive"


###

biological target: hPTP1B1–285 (Homo sapiens)
So basically: is IC50 under 20 µM? Then class 1. Not under? Then class 0.

[[record]]
compound = "C[C@H](CCC(=O)O)C1CCC2C3CC[C@@H]4C[C@](O)(CNCc5cccc(C(F)(F)F)c5)CC[C@]4(C)C3CC[C@@]21C.Cl (some centres unmarked) [compound 6m]"
category_label = "class 0"

[[record]]
compound = "O=C(O)C(=O)Nc1sc2c(c1C(=O)O)CCNC2 [TCS401, reference compound]"
category_label = "class 1"

[[record]]
compound = "C[C@H](CCC(=O)O)C1CCC2C3CC[C@@H]4C[C@](O)(CNCc5ccc(C(F)(F)F)cc5)CC[C@]4(C)C3CC[C@@]21C.Cl (some centres unmarked) [compound 6n]"
category_label = "class 1"

[[record]]
compound = "C[C@H](CCC(=O)O)C1CCC2C3CC[C@@H]4C[C@](O)(CNCc5cc(C(F)(F)F)cc(C(F)(F)F)c5)CC[C@]4(C)C3CC[C@@]21C.Cl (some centres unmarked) [compound 6o]"
category_label = "class 0"

[[record]]
compound = "C[C@H](CCC(=O)O)[C@H]1CC[C@H]2[C@@H]3CC[C@@H]4C[C@H](O)CC[C@]4(C)[C@H]3CC[C@]12C [LA, lithocholic acid, reference compound]"
category_label = "class 0"


###

target: hTCPTP (Homo sapiens, UniProt P17706); construct: His tag (vector pET-28a(+)-TEV, with TEV site); test: Selectivity assay against TCPTP; settings: concentrations tested 1 to 400 μM; read-out: TCPTP IC50 ± SD
Sequence (P17706 whole entry): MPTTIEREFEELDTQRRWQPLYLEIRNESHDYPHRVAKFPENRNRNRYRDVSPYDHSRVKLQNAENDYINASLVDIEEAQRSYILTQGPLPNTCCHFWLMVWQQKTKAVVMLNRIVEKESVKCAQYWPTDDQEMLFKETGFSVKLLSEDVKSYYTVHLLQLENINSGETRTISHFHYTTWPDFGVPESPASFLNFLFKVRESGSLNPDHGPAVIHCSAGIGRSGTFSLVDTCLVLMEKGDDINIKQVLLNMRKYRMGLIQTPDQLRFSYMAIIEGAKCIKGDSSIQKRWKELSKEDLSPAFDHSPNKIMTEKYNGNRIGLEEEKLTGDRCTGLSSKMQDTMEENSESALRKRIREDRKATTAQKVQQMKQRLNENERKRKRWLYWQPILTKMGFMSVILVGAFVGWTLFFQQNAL
OBSERVED_PROPERTY: IC50

[[record]]
compound = "C[C@H](CCC(=O)O)C1CCC2C3CC[C@@H]4C[C@](O)(CNCc5ccc(C(F)(F)F)cc5)CC[C@]4(C)C3CC[C@@]21C.Cl (stereo partly drawn)"
observed_property = "IC50"
measured = "> 400 µM"

[[record]]
compound = "C[C@H](CCC(=O)O)[C@H]1CC[C@H]2[C@@H]3CC[C@@H]4C[C@H](O)CC[C@]4(C)[C@H]3CC[C@]12C [LA, lithocholic acid, reference compound]"
observed_property = "IC50"
measured = "> 400 µM"

[[record]]
compound = "C[C@H](CCC(=O)O)C1CCC2C3CC[C@@H]4C[C@](O)(CNCc5cc(C(F)(F)F)cc(C(F)(F)F)c5)CC[C@]4(C)C3CC[C@@]21C.Cl (stereo partly drawn)"
observed_property = "IC50"
measured = "> 400 µM"

[[record]]
compound = "O=C(O)C(=O)Nc1sc2c(c1C(=O)O)CCNC2 [TCS401, reference compound]"
observed_property = "IC50"
measured = "6.7 µM"

[[record]]
compound = "C[C@H]1[C@H](C)CC[C@]2(C(=O)O)CC[C@]3(C)C(=CC[C@@H]4[C@@]5(C)CC[C@H](O)C(C)(C)[C@@H]5CC[C@]43C)[C@H]12"
observed_property = "IC50"
measured = "> 400 µM"

[[record]]
compound = "C[C@H](CCC(=O)O)C1CCC2C3CC[C@@H]4C[C@](O)(CNCc5cccc(C(F)(F)F)c5)CC[C@]4(C)C3CC[C@@]21C.Cl (stereo partly drawn)"
observed_property = "IC50"
measured = "> 400 µM"


###

Let's look at some compounds and their measured pKi.
molecular target: hPTP1B1–400 (Homo sapiens)
pKi: −log10 of the molar value.
OBSERVED_PROPERTY: pKi

[[record]]
compound = "C[C@H](CCC(=O)O)C1CCC2C3CC[C@@H]4C[C@](O)(CNCc5ccc(C(F)(F)F)cc5)CC[C@]4(C)C3CC[C@@]21C.Cl (stereo partly drawn) [compound 6n]"
observed_property = "pKi"
measured = 5.47

[[record]]
compound = "C[C@H](CCC(=O)O)C1CCC2C3CC[C@@H]4C[C@](O)(CNCc5cc(C(F)(F)F)cc(C(F)(F)F)c5)CC[C@]4(C)C3CC[C@@]21C.Cl (stereo partly drawn) [compound 6o]"
observed_property = "pKi"
measured = 5.41

[[record]]
compound = "C[C@H](CCC(=O)O)C1CCC2C3CC[C@@H]4C[C@](O)(CNCc5ccc(C(=O)O)cc5)CC[C@]4(C)C3CC[C@@]21C.Cl (stereo partly drawn) [compound 6l]"
observed_property = "pKi"
measured = 4.97

